measured_parameter: melting point

*Q* Item CN(C)c1cc(-c2nnc(-c3ccc(C(=O)O)cc3)o2)ccn1 [Compound 224] : provide melting point
*A* 240 to 250 °C

*Q* Item O=C(O)c1ccc(-c2cc(-c3ccccc3F)no2)cc1 [Compound 535] : provide melting point
*A* 302 to 303 °C

*Q* Item COc1ccc(-c2n[nH]c(-c3cccc(C(=O)O)c3)n2)cc1 [Compound No. 424] : provide melting point
*A* 287 to 289 °C

*Q* Item CC(C)c1cccc(-c2nnc(-c3ccc(C(=O)[O-])cc3)o2)c1.[Na+] [Compound 628] : provide melting point
*A* > 300 °C

*Q* Item O=C(O)c1cccc(-c2nnc(-c3ccc(Cl)nc3)o2)c1 [Compound 222] : provide melting point
*A* 278 to 282 °C

* * *

What melting point was measured for each of the following?

*Q* Item "CC(C)c1ccc(-c2ncc(-c3cccc(C(=O)O)c3)[nH]2)cc1" : provide melting point
*A* 283 to 285 °C

*Q* Item "CC(C)c1ccc(-c2cc(-c3cccc(C(=O)O)c3)no2)cc1" : provide melting point
*A* 222 to 225 °C

*Q* Item "O=C(O)c1ccc(-c2ncc(-c3ccsc3)o2)cc1" : provide melting point
*A* 246 to 247 °C

*Q* Item "CC(C)c1cccc(-c2cnc(-c3ccc(C(=O)O)cc3)o2)c1" : provide melting point
*A* 236 to 237 °C

*Q* Item "O=C(O)c1ccc(-c2ncc(-c3ccc(F)cc3)o2)cc1" : provide melting point
*A* 245 to 246 °C

*Q* Item "Cc1ccc(-c2cc(-c3ccc(C(=O)O)cc3)no2)cc1" : provide melting point
*A* 297.5 to 299 °C

*Q* Item "COc1ccc(-c2cc(-c3ccc(C(=O)O)cc3)no2)cc1" : provide melting point
*A* 298 to 300 °C

*Q* Item "CC(C)(C)c1ccc(-c2cnc(-c3ccc(C(=O)O)cc3)o2)cc1" : provide melting point
*A* 258 to 259 °C

*Q* Item "O=C(O)c1ccc(-c2ncc(-c3ccc4c(c3)OCO4)o2)cc1" : provide melting point
*A* 269 to 270 °C

*Q* Item "CN(C)c1ccc(-c2nnc(-c3cccc(C(=O)O)c3)o2)cc1" : provide melting point
*A* 268 to 270 °C

*Q* Item "O=C(O)c1cccc(-c2nnc(-c3ccc(N4CCOCC4)cc3)o2)c1" : provide melting point
*A* 235 to 237 °C

*Q* Item "O=C(O)c1cccc(-c2nc(-c3ccccc3O)n[nH]2)c1" : provide melting point
*A* > 300 °C

*Q* Item "O=C(O)c1cccc(-c2nnc(-c3c[nH]c4ccccc34)o2)c1" : provide melting point
*A* 304 to 320 °C

*Q* Item "CN(C)c1cccc(-c2nnc(-c3ccccc3C(=O)O)o2)c1" : provide melting point
*A* 71 to 78 °C

*Q* Item "CC(C)c1ccc(NC(=O)Nc2cccc(-c3nnc(-c4ccc(C(=O)O)cc4)o3)c2)cc1" : provide melting point
*A* > 270 °C

*Q* Item "O=C(O)c1ccc(-c2ncc(-c3cccc(F)c3F)o2)cc1" : provide melting point
*A* 295 to 296 °C

*Q* Item "Cc1cccc(-c2cnc(-c3ccc(C(=O)O)cc3)o2)c1" : provide melting point
*A* 248 to 249 °C

*Q* Item "CC(C)c1ccc(NC(=O)c2nnc(-c3cccc(C(=O)O)c3)o2)cc1" : provide melting point
*A* 220 to 226 °C

*Q* Item "COc1cccc(-c2cc(-c3cccc(C(=O)O)c3)no2)c1" : provide melting point
*A* 201 to 203 °C

*Q* Item "CN(C)c1cccc(-c2nnc(-c3ccc(C(=O)O)cc3)o2)c1" : provide melting point
*A* 247 to 248 °C

*Q* Item "O=C(O)c1ccc(-c2ncc(-c3ccc(F)c(F)c3)o2)cc1" : provide melting point
*A* 291 to 292 °C

*Q* Item "O=C(O)c1cccc(-c2nc(-c3ccc(Br)cc3)n[nH]2)c1" : provide melting point
*A* 309 to 311 °C

*Q* Item "O=C(O)c1cccc(-c2nc(-c3ccccc3)n[nH]2)c1" : provide melting point
*A* > 300 °C

*Q* Item "COc1ccc(-c2nnc(-c3ccc(C(C)C)cc3)o2)cc1C(=O)O" : provide melting point
*A* 174 to 177 °C

*Q* Item "O=C(O)c1cccc(-c2ncc(-c3ccccc3F)o2)c1" : provide melting point
*A* 228 to 229 °C

*Q* Item "O=C(O)c1ccc(-c2ncc(-c3ccc(Oc4ccccc4)cc3)o2)cc1" : provide melting point
*A* 220 to 222 °C

*Q* Item "O=C(O)c1cccc(-c2cc(-c3cccc(F)c3)on2)c1" : provide melting point
*A* 242 to 243 °C

*Q* Item "O=C(O)c1cccc(-c2nc(-c3ccc(-c4ccccc4)cc3)n[nH]2)c1" : provide melting point
*A* > 300 °C

*Q* Item "O=C(O)c1ccc(-c2cc(-c3ccc(F)cc3)on2)cc1" : provide melting point
*A* 318 to 319 °C

*Q* Item "O=C(O)c1ccc(-c2cc(-c3ccccc3F)on2)cc1" : provide melting point
*A* 292.5 to 293.5 °C

*Q* Item "O=C(O)c1ccc(-c2cc(-c3ccc(F)cc3F)on2)cc1" : provide melting point
*A* 317 to 319 °C

*Q* Item "CC(C)c1ccc(-c2cc(-c3cccc(C(=O)O)c3)on2)cc1" : provide melting point
*A* 200 to 212 °C

*Q* Item "Cc1ccc(-c2n[nH]c(-c3cccc(C(=O)O)c3)n2)cc1" : provide melting point
*A* > 300 °C

*Q* Item "O=C(O)c1ccc(-c2ncc(-c3cccc(OC(F)(F)F)c3)o2)cc1" : provide melting point
*A* 284 to 285 °C

*Q* Item "CCOc1ccc(-c2cnc(-c3ccc(C(=O)O)cc3)o2)cc1" : provide melting point
*A* 245 to 246 °C

*Q* Item "CC(C)c1ccc(-c2noc(-c3ccc(C(=O)O)cc3)n2)cc1" : provide melting point
*A* 253 to 255 °C

*Q* Item "CC(C)c1ccc(-c2cc(-c3cccc(C(=O)O)c3)cs2)cc1" : provide melting point
*A* 208 to 209 °C
